B1: library; numbered along this chain (parent)
chain: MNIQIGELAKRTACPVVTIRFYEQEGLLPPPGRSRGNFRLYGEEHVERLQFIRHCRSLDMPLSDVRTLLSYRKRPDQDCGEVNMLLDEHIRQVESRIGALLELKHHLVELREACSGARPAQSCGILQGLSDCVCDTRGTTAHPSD

Variants of: B1
Experiment Summary: sfGFP reporter fluorescence (15 h) (µM FITC); higher = higher leak
Recorded Conditions: library round: Round 1; ligand: none
Attribute: sfGFP reporter fluorescence

[
  {
    "Primary Sequence": "MNIQIGELAKRTACPVVTIRFYEQEGLLPPPGRSRGNFRLYGEEHVERLQFIRHCRSLDMNLSDVRTLLSYRKRPDQDCGEVNMLLDEHIRQVVSRIGALLELKHHLVELREACSGARPAQSCGILQGLSDCVCDTRGTTAHPSD [P61N E94V]",
    "sfGFP reporter fluorescence": 0.0745
  },
  {
    "Primary Sequence": "MNIQIGELAKRTACPVVTIRFYEQEGLLPPPGRSRGNFRLYGEEHVERLQFIRHCRSLDMPLSAVRTLLSYRKRPDQDCGEVNMLLDEHIRQVESRMGALLELKHHLVELREACSGARPAQSCGILQGLSDCVCDTRGTTAHPSD [D64A I97M]",
    "sfGFP reporter fluorescence": 0.0644
  },
  {
    "Primary Sequence": "MNIQIGELAKRTACPVVTIRFYEQEGLLPPPGRSRGNFRLYGEEHVERLQFIRHCRSLDMPLSTVRTLLSYRKRPDQDCGEVNMLLDEHIRQVESRIGALLELTHHLVELREACSGARPAQSCGILQGLSDCVCDTRGTTAHPSD [D64T K104T]",
    "sfGFP reporter fluorescence": 0.207
  },
  {
    "Primary Sequence": "MNIQIGELAKRTACPVVTIRFYEQEGLLPPPGRSRGNFRLYGEEHVERLQFIRHCRSLDMPLSDVRTLLSYRKRPDQDCGEVTMLLDEHIRQVESRIGALLELKHHLVELREACSGARPAQSCGILQGLSSCVCDTRGTTAHYSD [N83T D131S P143Y]",
    "sfGFP reporter fluorescence": 0.0614
  },
  {
    "Primary Sequence": "MNIQIGELAKRTACPVVTIRFYEQEGLLPPPGRSRGNFRLYGEEHVERLQFIRHCRSLDMPLSDVRTLLSYRKRPDQDCGEVFMLLDEHIRQVESRIGALLELKHHLVELREACSGARPAQSCGILQGLSDCVCDTRGTTAHKSD [N83F P143K]",
    "sfGFP reporter fluorescence": 0.0612
  },
  {
    "Primary Sequence": "MNIQIGELAKRTACPVVTIRFYEQEGLLPPPGRSRGNFRLYGEEHVERLQFIRHCRSLDMPLSDVRTLLSYRKRPDQDCGEVSMLLDEHIRQVESRIGALLELKHHLVELREACSGARPAQSCGILQGLSDCVCPTRGTTAHPSD [N83S D135P]",
    "sfGFP reporter fluorescence": 0.0623
  },
  {
    "Primary Sequence": "MNIQIGELAKRTACPVVTIRFYEQEGLLPPPGRSRGNFRLYGEEHVERLQFIRHCRSLDMPLSDVRTLLSYRKRPDQDCGEVTMLLDEHIRQVESRIGALLELKHHLVELREACSGARPAQSCGILQGLSSCVCDTRGTTAHASD [N83T D131S P143A]",
    "sfGFP reporter fluorescence": 0.059
  },
  {
    "Primary Sequence": "MNIQIGELAKRTACPVVTIRFYEQVGLLPPPGRSRGNFRLYGEEHVERLQFIRHCRSLDMPLSDVRTLLSYRKRPDQDCGEVNMLLDEHIRQVESRIGALLELKHHLVELMEACSGARPAQSCGILQGLSDCVCDTRGTTAHPSD [E25V R111M]",
    "sfGFP reporter fluorescence": 0.063
  },
  {
    "Primary Sequence": "MNIQIGELAKRTACPVVTIRFYEQEGLLPPPGRSRGNFRLYGEEHVERLQFIRHCRSLDMPLSDVRTLLSYRKRPDQDCGEVNMLLDEHIRQVESRIGALLELKHHLVELREACSGARPAQSCGILQGVSDCVCATRGTTAHPSD [L129V D135A]",
    "sfGFP reporter fluorescence": 0.0641
  },
  {
    "Primary Sequence": "MNIQIGELAKRTACPVVTIRFYEQEGLLPPPGRSRGNFRLYGEEHVERLQFIRHCRSLDMPLSDVRTLLSYRKRPDQDCGEVTMLLDEHIRQVESRIGALLELKHHLVELREACSGARPAQSCGILQGLSACVCDTRGTTAHLSD [N83T D131A P143L]",
    "sfGFP reporter fluorescence": 0.0646
  },
  {
    "Primary Sequence": "MNIQIGELAKRTACPVVTIRFYEQEGLLPPPGRSRGNFRLYGEEHVERLQFIRHCRSLDMPLSDVRTLLSYRKRPDQDCGEVTMLLDEHIRQVESRIGALLELKHHCVELREACSGARPAQSCGILQMLSDCVCDTRGTTAHPSD [N83T L107C G128M]",
    "sfGFP reporter fluorescence": 0.432
  },
  {
    "Primary Sequence": "MNIQIGELAKRTACPVVTIRFYEQEGLLPPPGRSRGNFRLYGEEHVERLQFIRHCRSLDMPLSDVRTLLSYRKRPDQDCGEVNMLLDEHIRQVESRIGALLELKHHLVELREACSGARPAQSCGILQLLSDCVCATRGTTAHPSD [G128L D135A]",
    "sfGFP reporter fluorescence": 0.075
  },
  {
    "Primary Sequence": "MNIQIGELAKRTACPVVTIRFYEQEGLLPPPGRSRGNFRLYGEEHVERLQFIRHVRSLDMPLSDVRTLLSYRKRPDQDCGEVNMLLDEHIRQVESRIGALLELVHHLVELREACSGARPAQSCGILQGLSDCVCDTRGTTAHPSD [C55V K104V]",
    "sfGFP reporter fluorescence": 0.0621
  },
  {
    "Primary Sequence": "MNIQIGELAKRTACPVVTIRFYEQEGLLPPPGRSRGNFRLYGEEHVERLQFIRHCRSLDMPLSDVRTLLSYRKRPDQDCGEVTMLLDEHIRQVESRIGALLELKHHLVELREACSGARPAQSCGILQGLSMCVCATRGTTAHPSD [N83T D131M D135A]",
    "sfGFP reporter fluorescence": 0.0656
  },
  {
    "Primary Sequence": "MNIQIGELAKRTACPVVTIRFYEQEGLLPPPGRSRGNFRLYGEEHVERLQFIRHCRSLDMPLSDVRTLLSYRKRPDQDCGEVNMLLDEHIRQVESRIGALLELKHHLVELREACSGARPAQSCGILQHLSDCVCDTRGTTAHWSD [G128H P143W]",
    "sfGFP reporter fluorescence": 0.0661
  },
  {
    "Primary Sequence": "MNIQIGELAKRTACPVVTIRFYEQEGLLPPPGRSRGNFRLYGEEHVERLQFIRHCRSLDMDLSMVRTLLSYRKRPDQDCGEVNMLLDEHIRQVESRIGALLELKHHLVELLEACSGARPAQSCGILQGLSDCVCDTRGTTAHPSD [P61D D64M R111L]",
    "sfGFP reporter fluorescence": 0.177
  },
  {
    "Primary Sequence": "MNIQIGELAKRTACPVVTIRFYEQEGLLPPPGRSRGNFRLYGEEHVERLQFIRHCRSLDMPLSDVRTLLSYRKRPDQDCGEVNMLLDEHIRQVESRIGALLELKHHCVHLREACSGARPAQSCGILQGLSDCVCDTRGTTAHPSD [L107C E109H]",
    "sfGFP reporter fluorescence": 0.16
  }
]
